Just for reference, ChEMBL document CHEMBL2440056 is where these values come from.

- Test system: Mus musculus
- test summary: Hypoglycemic effect in starch-challenged ICR mouse assessed as glucose AUC at 10 mg/kg, po by glucose oxidase method (reference value: 430.1 +/- 44.7 mg.hr/dL)
- Format: functional, organism-based
- Set-up: dose 10 mg/kg
measure: AUC (ng·h/mL)
Give your result in ng·h/mL as a bare value.

Here are 4 compounds together with their reported answers.
[[record]]
compound = "OC[C@H]1N[C@H](CO)[C@@H](O)[C@H](O)[C@H]1O"
measure = "AUC"
result = "2.99e+06"

[[record]]
compound = "C[C@H]1O[C@H](O[C@H]2[C@H](O)[C@@H](O)[C@@H](O[C@H]3[C@H](O)[C@@H](O)C(O)O[C@@H]3CO)O[C@@H]2CO)[C@H](O)[C@@H](O)[C@@H]1N[C@H]1C=C(CO)[C@@H](O)[C@H](O)[C@H]1O (stereo not given in full)"
measure = "AUC"
result = "3.34e+06"

[[record]]
compound = "OC[C@H]1N[C@H](CO[C@@H]2O[C@H](CO)[C@@H](O)[C@H](O)[C@H]2O)[C@H](O)[C@@H](O)[C@@H]1O"
measure = "AUC"
result = "3.41e+06"

[[record]]
compound = "OC[C@@H](O)[C@H]1N[C@H](CO)[C@@H](O)[C@@H]1O"
measure = "AUC"
result = "3.9e+06"


Now consider a different compound.
Req: Query: AUC; subject: CN1[C@H](CO)[C@H](O)[C@@H](O)[C@H](O)[C@H]1CO
Resp: 2.72e+06
